- System: MES (electroshock) seizure in mice
- assay method text: Anti-epilepsy activity, MES test in mouse
- Assay type: in vivo, ICR mice
- stated conditions: po, dose 100 mg/kg, read-out: MES test (po) efficacy %
experimental endpoint: responders at 100 mg/kg (%)

| compound | experimental endpoint | unit symbol | val |
| --- | --- | --- | --- |
| NC(=O)O[C@@H]1CCc2ccccc2[C@@H]1O [Example 14] | responders at 100 mg/kg | % | 100 |
| NC(=O)O[C@H]1CCc2cccc(I)c2[C@H]1O [Example 13] | responders at 100 mg/kg | % | 33.3 |
| NC(=O)O[C@H]1c2cc(Cl)ccc2CC[C@H]1O [Example 21] | responders at 100 mg/kg | % | 33.3 |
| NC(=O)O[C@@H]1CCc2cc(Cl)ccc2[C@@H]1O [Example 8] | responders at 100 mg/kg | % | 100 |
| NC(=O)O[C@@H]1CCc2cccc(I)c2[C@@H]1O [Example 12] | responders at 100 mg/kg | % | 100 |
| NC(=O)O[C@@H]1c2c(I)cccc2CC[C@@H]1O [Example 28] | responders at 100 mg/kg | % | 100 |
| NC(=O)O[C@H]1c2ccc(Cl)cc2CC[C@H]1O [Example 23] | responders at 100 mg/kg | % | 33.3 |
| COCO[C@H]1Cc2cccc(Cl)c2[C@H]1OC(N)=O [Example 76] | responders at 100 mg/kg | % | 100 |
| NC(=O)O[C@H]1Cc2cccc(Cl)c2[C@H]1OC(N)=O [Example 78] | responders at 100 mg/kg | % | 33.3 |
| NC(=O)O[C@H]1c2c(F)cccc2C[C@H]1O [Example 69] | responders at 100 mg/kg | % | 33.3 |

Values from patent US11168052B2
